biological target: human CD28 (human, UniProt P10747 19-220); assay: cell-based or functional assay
Entries annotated with measured Luciferase assay (EC50)
Quick reminder: number only, in nM, skip the unit.

Query: // query Luciferase assay (EC50) value for entry 1h-93-2 (other) VH: EVQLLESGGGLVQPGGSLRLSCAASGFTFPLYEMAWVRQAPGKGLEWVSSIMSNGIRTYYADSVKGRFTISRDNSKNTLYLQMNSLRAEDTAVYYCAKRESSSSRTVFDYWGQGTLVTVSS
Result: 383

Query: // query Luciferase assay (EC50) value for entry 1h-99-228 (other) VH: EVQLLESGGGLVQPGGSLRLSCAASGFTFHRANMSWVRQAPGKGLEWVSWIEDTGTQTFYADSVKGRFTISRDNSKNTLYLQMNSLRAEDTAVYYCAKSPFGPLYGSDYRGQGTLVTVSS
Result: 12
